Test: Parallel artificial membrane permeability assay (PAMPA-BBB)
Assay type: in vitro ADME
Conditions: pig; PAMPA-BBB, pH 7.4, 5% DMSO, 2 h 30 min at 25 °C, mean ± SD; read-out: Pe, in vitro permeability
molecules and their reported Papp at 2.5 h
Give the number; ×10⁻⁶ cm/s is assumed, so skip it.

Previously resolved entries follow.
- CN1C(C(=O)Nc2ccccn2)=C(O)c2ccccc2S1(=O)=O [Piroxicam]: 1.3
- O=C(N/N=C/c1ccc([N+](=O)[O-])c(O)c1)c1ccco1 [3a]: 1.7
- O=C(NN=Cc1ccc([N+](=O)[O-])c(O)c1)C(O)c1ccccc1 (mixture of isomers) [3d]: 2.5

Consider the record given below.
Give reported Papp at 2.5 h value for CN(C)CCCN1c2ccccc2Sc2ccccc21 [Promazine]
9.5

* * *

Biological target: NCS-1/Ric8a interaction (Homo sapiens)
Construct: expressed in transfected cells; host or cells: HEK293 cells (Dharmacon)
Sequence (P62166 2-190 limits assumed): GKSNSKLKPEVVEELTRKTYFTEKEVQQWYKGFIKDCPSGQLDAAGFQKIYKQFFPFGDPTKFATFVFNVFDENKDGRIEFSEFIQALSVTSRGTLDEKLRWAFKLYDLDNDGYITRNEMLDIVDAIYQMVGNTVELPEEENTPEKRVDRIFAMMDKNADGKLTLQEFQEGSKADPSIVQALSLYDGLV
Test: Co-IP binding assay of human NCS-1 and V5-tagged Ric8a in transfected HEK cells
Format: cell-based
Conditions: compound 20 μM; DMSO in the same experiment 19247016
Each entry below carries its reported Densitometry of V5-Ric8a co-immunoprecipitated with NCS-1, exp1.
Hey, just send me the number, nothing else.

Reference set, count: 3
* O=C(NN=Cc1ccc([N+](=O)[O-])c(O)c1)C(O)c1ccccc1 (mixture of isomers) [3d] | 25716501
* O=C(N/N=C/c1ccc([N+](=O)[O-])c(O)c1)c1ccco1 [3a] | 13971167
* CN(C)CCCN1c2ccccc2Sc2ccc(Cl)cc21 [CPZ, Chlorpromazine, reference compound] | 3883518

Turning now to a further molecule:
Give recorded Densitometry of V5-Ric8a co-immunoprecipitated with NCS-1, exp1. O=C(Cc1c[nH]c2ccccc12)NN=Cc1ccc([N+](=O)[O-])c(O)c1 (mixture of isomers) [3b]
32007200

* * *

Biological target: dNCS-1 (Drosophila melanogaster, UniProt Q9VWX8)
Construct: made in house; host or cells: E. coli
Sequence (Q9VWX8 1-187): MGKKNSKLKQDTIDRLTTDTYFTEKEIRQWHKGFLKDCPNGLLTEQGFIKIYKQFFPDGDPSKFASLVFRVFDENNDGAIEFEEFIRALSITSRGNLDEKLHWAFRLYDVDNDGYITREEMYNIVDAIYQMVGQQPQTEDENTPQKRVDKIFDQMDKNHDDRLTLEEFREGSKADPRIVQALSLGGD
Assay: Protein-directed DCL, HPLC-MS relative peak area with and without dNCS-1
Conditions: sheet Supplementary Figure 10
reported-metric: RPA (%), Blank DCL
Give the value in % but do not write % after it.

Completed entries (count: 4):
• O=C(N/N=C/c1ccc([N+](=O)[O-])c(O)c1)c1ccco1 [3a] = 27.3
• O=C(NN=Cc1ccc([N+](=O)[O-])c(O)c1)C(O)c1ccccc1 (mixture of isomers) [3d] = 11.1
• COCCC(=O)N/N=C/c1ccc([N+](=O)[O-])c(O)c1 [3c] = 9.6
• O=C(N/N=C/c1ccc([N+](=O)[O-])c(O)c1)c1cccs1 [3e] = 32.8

Note: attention shifts to another entry.
Consider the compound O=C(Cc1c[nH]c2ccccc12)NN=Cc1ccc([N+](=O)[O-])c(O)c1 (mixture of isomers) [3b] . State its measured RPA (%), Blank DCL.
19.2

* * *

Biological target: NCS-1/Ric8a interaction (Homo sapiens)
Construct: expressed in transfected cells; host or cells: HEK293 cells (Dharmacon)
Test: Co-IP binding assay of human NCS-1 and V5-tagged Ric8a in transfected HEK cells
Assay type: cell-based
Details: compound 20 μM; DMSO in the same experiment 4613104
reported-metric: Densitometry of V5-Ric8a co-immunoprecipitated with NCS-1, exp3
Output: the number by itself.

* O=C(Cc1c[nH]c2ccccc12)NN=Cc1ccc([N+](=O)[O-])c(O)c1 (mixture of isomers) | 7268347
* CN(C)CCCN1c2ccccc2Sc2ccc(Cl)cc21 [CPZ, Chlorpromazine, reference compound] | 3547054
* O=C(N/N=C/c1ccc([N+](=O)[O-])c(O)c1)c1ccco1 | 1649426

Give reported Densitometry of V5-Ric8a co-immunoprecipitated with NCS-1, exp3 for O=C(NN=Cc1ccc([N+](=O)[O-])c(O)c1)C(O)c1ccccc1 (mixture of isomers) (NCS-1/Ric8a interaction (Homo sapiens))
9737953

* * *

Molecular target: dNCS-1 (Drosophila melanogaster, UniProt Q9VWX8)
Construct: made in house; host or cells: E. coli
Assay: Tryptophan emission fluorescence of dNCS-1 at increasing ligand concentrations (apparent Kd)
Assay type: binding
Details: ligand 6.4 μM
reported-metric: Normalized Fluorescence I0-I/I0
Please give the numeric answer without any surrounding text.

• CN(C)CCCN1c2ccccc2Sc2ccc(Cl)cc21 [CPZ, Chlorpromazine, reference compound] = 0.263
• O=C(N/N=C/c1ccc([N+](=O)[O-])c(O)c1)c1ccco1 [3a] = 0.215
• O=C(NN=Cc1ccc([N+](=O)[O-])c(O)c1)C(O)c1ccccc1 (mixture of isomers) [3d] = 0.086

Assign Normalized Fluorescence I0-I/I0 to the following record: O=C(Cc1c[nH]c2ccccc12)NN=Cc1ccc([N+](=O)[O-])c(O)c1 (mixture of isomers) [3b]
0.094

* * *

Molecular target: dNCS-1 (Drosophila melanogaster)
Construct: made in house; host or cells: E. coli
Sequence (Q9VWX8 1-187): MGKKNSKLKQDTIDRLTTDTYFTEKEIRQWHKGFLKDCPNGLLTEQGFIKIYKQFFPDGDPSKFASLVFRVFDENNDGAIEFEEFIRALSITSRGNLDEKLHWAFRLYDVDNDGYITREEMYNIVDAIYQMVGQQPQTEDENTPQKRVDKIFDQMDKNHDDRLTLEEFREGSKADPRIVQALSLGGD
Experiment: Protein-directed DCL, HPLC-MS relative peak area with and without dNCS-1
Conditions: as fraction of total area
Short version: RPA, Blank DCL at least 0.3 is 1, less is -1.

- O=C(N/N=C/c1ccc([N+](=O)[O-])c(O)c1)c1ccco1: -1
- O=C(N/N=C/c1ccc([N+](=O)[O-])c(O)c1)c1cccs1: 1
- O=C(Cc1c[nH]c2ccccc12)NN=Cc1ccc([N+](=O)[O-])c(O)c1 (mixture of isomers): -1

Could you please find out whether O=C(NN=Cc1ccc([N+](=O)[O-])c(O)c1)C(O)c1ccccc1 (mixture of isomers) has RPA, Blank DCL that meets 0.3 or exceeds it?
-1

Given "COCCC(=O)N/N=C/c1ccc([N+](=O)[O-])c(O)c1" , state whether its RPA, Blank DCL is at least 0.3.
-1

* * *

Target: dNCS-1 (Drosophila melanogaster)
Construct: made in house; host or cells: E. coli
Experiment: Tryptophan emission fluorescence of dNCS-1 at increasing ligand concentrations (apparent Kd)
Type: binding
Details: ligand 32 μM
reported-metric: Normalized Fluorescence I0-I/I0
Could you keep your reply to the number by itself?

* O=C(NN=Cc1ccc([N+](=O)[O-])c(O)c1)C(O)c1ccccc1 (mixture of isomers) [3d] | 0.424
* O=C(Cc1c[nH]c2ccccc12)NN=Cc1ccc([N+](=O)[O-])c(O)c1 (mixture of isomers) [3b] | 0.600
* O=C(N/N=C/c1ccc([N+](=O)[O-])c(O)c1)c1ccco1 [3a] | 0.668

Write down Normalized Fluorescence I0-I/I0 measured for item CN(C)CCCN1c2ccccc2Sc2ccc(Cl)cc21 [CPZ, Chlorpromazine, reference compound]
0.794

* * *

Target: dNCS-1 (Drosophila melanogaster)
Construct: made in house; host or cells: E. coli
Sequence (Q9VWX8 1-187): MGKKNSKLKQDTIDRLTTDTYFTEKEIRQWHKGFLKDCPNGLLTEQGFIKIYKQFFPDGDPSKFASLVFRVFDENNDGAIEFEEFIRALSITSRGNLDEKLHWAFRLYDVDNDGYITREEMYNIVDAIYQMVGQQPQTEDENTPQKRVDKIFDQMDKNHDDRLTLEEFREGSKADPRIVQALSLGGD
Experiment: Protein-directed DCL, HPLC-MS relative peak area with and without dNCS-1
Details: as fraction of total area, with dNCS-1
As shown below, each of these compounds has a reported RPA, Templated DCL value.
// return a plain number; no unit text

Some compounds with recorded RPA, Templated DCL:
- O=C(NN=Cc1ccc([N+](=O)[O-])c(O)c1)C(O)c1ccccc1 (mixture of isomers): 0.0839
- O=C(N/N=C/c1ccc([N+](=O)[O-])c(O)c1)c1ccco1: 0.1875
- COCCC(=O)N/N=C/c1ccc([N+](=O)[O-])c(O)c1: 0
- O=C(N/N=C/c1ccc([N+](=O)[O-])c(O)c1)c1cccs1: 0.4342

--- query ---
Provide one value: measured RPA, Templated DCL of O=C(Cc1c[nH]c2ccccc12)NN=Cc1ccc([N+](=O)[O-])c(O)c1 (mixture of isomers)
0.2944
